target: BRD4 BD1 (Homo sapiens, UniProt O60885); construct: His-tagged BRD4 BD1 (44-160); test: BRD4 BD1 Fluorescence Polarization (FP) competition binding assay; settings: BRD4 BD1 40 nM, probe PFI-411FP 2 nM
PROPERTY NAME: pIC50
Just the number, please; pIC50 means minus log10 of the concentration in mol/L.

*Q* For BRD4 BD1 (Homo sapiens, UniProt O60885), provide pIC50 of CCN(C(C)=O)c1ccc2nc(NCCC(=O)O)c(=O)n([C@@H](C)c3ccccc3OC)c2n1 please.
*A* 5.57

*Q* For BRD4 BD1 (Homo sapiens, UniProt O60885), provide pIC50 of CC[C@@H](c1ccccc1)n1c(=O)c(NCCC(=O)O)nc2ccc(N(C)C(=O)N(C)C)nc21 please.
*A* 6.04

*Q* For BRD4 BD1 (Homo sapiens, UniProt O60885), provide pIC50 of CCC(=O)N(C)c1ccc2nc(NCC(=O)NC)c(=O)n([C@H](c3ccccn3)C(C)C)c2n1 please.
*A* 6.46

*Q* For BRD4 BD1 (Homo sapiens, UniProt O60885), provide pIC50 of COc1ccccc1[C@H](C)n1c(=O)c(NCCC(=O)O)nc2ccc(N(C)C(C)=O)nc21 please.
*A* 6.14

* * *

test system: C4-2AR-F876L cells, AR(+); test: CRPC cell proliferation assay (CellTiter-Glo), C4-2AR-F876L; assay type: cell-based; settings: CTG at 96h
PROPERTY NAME: Max % Inh (%)
Field format: number, assumed %, no unit text.

*Q* # lookup: Max % Inh of CC[C@H](COC)n1c(=O)c(NCCC(=O)O)nc2ccc(-c3c(C)noc3C)nc21 [Example 47]
*A* 81

*Q* # lookup: Max % Inh of CNC(=O)c1ccc(N2C(=S)N(c3ccc(C#N)c(C(F)(F)F)c3)C(=O)C2(C)C)cc1F [MDV3100, reference compound]
*A* 44

*Q* # lookup: Max % Inh of COc1cc2c(cc1-c1c(C)noc1C)ncc1[nH]c(=O)n([C@H](C)c3ccccn3)c12 [i-BET151, reference compound]
*A* 90

*Q* # lookup: Max % Inh of CCC(=O)N(C)c1ccc2nc(NCCC(=O)O)c(=O)n([C@@H](CC)c3ccccc3)c2n1 [Example 10]
*A* 85

* * *

target: BRD4 BD1 (Homo sapiens, UniProt O60885); construct: His-tagged BRD4 BD1 (44-160); made in house; test: BRD4 BD1 Fluorescence Polarization (FP) competition binding assay; conditions: BRD4 BD1 40 nM, probe PFI-411FP 2 nM
PROPERTY NAME: pIC50
Just the number, please; pIC50 means minus log10 of the concentration in mol/L.

*Q* # lookup: pIC50 of CCC(=O)N(C)c1ccc2nc(NCCC(=O)NC)c(=O)n([C@@H](CC)c3ccccc3)c2n1
*A* 7.19

*Q* # lookup: pIC50 of CC[C@@H](c1ccccc1)n1c(=O)c(NCCC(=O)O)nc2ccc(N(C)C(=O)CO)nc21
*A* 6.02

*Q* # lookup: pIC50 of CC[C@@H](c1ccccc1)n1c(=O)c(NCCC(=O)O)nc2ccc(N(C)C(C)=O)nc21
*A* 6.93

*Q* # lookup: pIC50 of COC[C@@H](c1ccccc1)n1c(=O)c(NCCC(=O)O)nc2ccc(N(C)C(C)=O)nc21
*A* 6.65

*Q* # lookup: pIC50 of CCC(CC)n1c(=O)c(NCCC(=O)O)nc2ccc(-c3c(C)noc3C)nc21
*A* 6.46

*Q* # lookup: pIC50 of Cc1noc(C)c1-c1ccc2nc(NCCc3nnn[nH]3)c(=O)n([C@@H](C)c3ccccc3)c2n1
*A* 6.53

*Q* # lookup: pIC50 of CC[C@@H](c1ccccc1)n1c(=O)c(NCCC(=O)O)nc2ccc(N(C)C(=O)C3CC(C)(C)C3)nc21
*A* 5.20

*Q* # lookup: pIC50 of Cc1noc(C)c1-c1ccc2nc(NCCC(=O)O)c(=O)n([C@H](c3ccccn3)C(C)C)c2n1
*A* 7.00
